System Name: DNA topoisomerase 1 (Homo sapiens) (UniProt P11387)
Sequence (whole entry): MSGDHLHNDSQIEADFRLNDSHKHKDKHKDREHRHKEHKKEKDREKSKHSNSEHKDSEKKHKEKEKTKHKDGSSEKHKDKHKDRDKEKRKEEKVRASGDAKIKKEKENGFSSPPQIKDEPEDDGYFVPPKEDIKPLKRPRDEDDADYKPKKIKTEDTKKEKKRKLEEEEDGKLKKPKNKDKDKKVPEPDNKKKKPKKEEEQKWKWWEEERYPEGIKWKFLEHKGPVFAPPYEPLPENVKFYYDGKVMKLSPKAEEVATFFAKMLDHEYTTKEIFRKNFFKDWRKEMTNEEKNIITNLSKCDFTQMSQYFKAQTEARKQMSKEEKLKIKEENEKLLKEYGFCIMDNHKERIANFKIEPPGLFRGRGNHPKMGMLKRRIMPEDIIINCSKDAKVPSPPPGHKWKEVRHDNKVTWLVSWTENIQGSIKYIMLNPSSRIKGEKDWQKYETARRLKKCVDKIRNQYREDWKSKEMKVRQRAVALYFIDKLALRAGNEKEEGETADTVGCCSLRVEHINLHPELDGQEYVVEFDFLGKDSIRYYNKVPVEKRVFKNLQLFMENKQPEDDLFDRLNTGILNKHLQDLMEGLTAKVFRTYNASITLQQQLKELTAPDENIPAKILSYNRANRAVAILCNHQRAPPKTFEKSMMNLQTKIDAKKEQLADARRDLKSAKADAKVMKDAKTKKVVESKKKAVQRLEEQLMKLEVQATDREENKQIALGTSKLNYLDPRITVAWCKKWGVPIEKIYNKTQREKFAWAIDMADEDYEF
Protocol Details: Inhibition of human recombinant DNA topoisomerase 1-mediated DNA relaxation at 100 uM incubated for 30 mins using pBR322 DNA substrate by ethidium bromide dye-based agarose gel electrophoresis relative to control camptothecin
Ratio values by entry

| Smiles Code | Ratio |
| --- | --- |
| COc1ccc(-c2cc3cc(C)ccc3c(-c3cccc(OCCN(C)C)c3)n2)c(C)c1 | 0.05 |
| COc1ccc(-c2cc3cc(C)ccc3c(-c3cccc(O)c3)n2)c(C)c1 | 1.13 |
| COc1cc(OC)cc(-c2cc3ccccc3c(-c3cccc(O)c3)n2)c1 | 0 |
| COc1ccc(-c2cc3ccccc3c(-c3cccc(N)c3)n2)cc1 | 0 |
| COc1ccc(-c2cc3ccccc3c(-c3ccc(O)cc3)n2)cc1 | 0.09 |

###

System Name: DNA topoisomerase 1 (Homo sapiens)
Protocol Details: Inhibition of human recombinant DNA topoisomerase 1-mediated DNA relaxation at 100 uM incubated for 30 mins using pBR322 DNA substrate by ethidium bromide dye-based agarose gel electrophoresis relative to control camptothecin
Param threshold (0.03) applies to Ratio; output label 1 when value >= threshold, label 0 when value < threshold.

| Smiles Code | Label Value |
| --- | --- |
| COc1ccc(-c2cc3cc(C)ccc3c(-c3cccc(OCCCN(C)C)c3)n2)c(C)c1 | label 1 |
| COc1cc(OC)cc(-c2cc3ccccc3c(-c3cccc(OC)c3)n2)c1 | label 0 |
| COc1cc(OC)cc(-c2cc3ccccc3c(-c3ccc(O)cc3)n2)c1 | label 0 |
| COc1ccc(-c2cc3cc(C)ccc3c(-c3ccc(O)cc3)n2)cc1OC | label 0 |
| COc1ccc(-c2cc3cc(C)ccc3c(-c3cccc(N)c3)n2)cc1OC | label 1 |
| COc1cccc(-c2nc(-c3ccc(OC)c(OC)c3)cc3cc(C)ccc23)c1 | label 1 |
| COc1ccc(-c2nc(-c3ccc(OC)c(OC)c3)cc3cc(C)ccc23)cc1 | label 1 |
| COc1ccc(-c2cc3ccccc3c(-c3ccc(OC)cc3)n2)cc1 | label 0 |
| COc1ccc(-c2cc3ccccc3c(-c3cccc(OC)c3)n2)cc1 | label 1 |
